# pKd per entry
experimental_target: T1, recombinant human GPC1 protein (R&D Systems) (human, UniProt P35052 24-530)
T1 construct: Bought recombinant protein (R&D Systems); also called human GPC-1 antigen; Glypican-1
T1 sequence: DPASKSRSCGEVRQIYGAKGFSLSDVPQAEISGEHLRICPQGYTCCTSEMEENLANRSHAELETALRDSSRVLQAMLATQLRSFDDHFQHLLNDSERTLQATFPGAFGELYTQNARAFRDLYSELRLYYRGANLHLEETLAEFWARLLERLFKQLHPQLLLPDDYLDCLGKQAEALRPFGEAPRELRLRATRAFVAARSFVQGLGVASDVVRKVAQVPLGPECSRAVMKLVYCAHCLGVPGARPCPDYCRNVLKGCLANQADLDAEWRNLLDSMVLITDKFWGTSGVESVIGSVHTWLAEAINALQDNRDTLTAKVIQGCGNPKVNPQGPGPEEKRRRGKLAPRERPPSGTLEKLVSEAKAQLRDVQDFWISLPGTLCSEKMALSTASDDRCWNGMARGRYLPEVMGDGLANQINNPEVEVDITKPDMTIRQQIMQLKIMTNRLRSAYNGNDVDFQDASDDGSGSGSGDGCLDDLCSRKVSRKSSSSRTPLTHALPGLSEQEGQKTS
method_description: SPR (Biacore 8K); antibody captured by anti-human IgG (Fc) on a CM5 chip, recombinant human GPC1 flowed over
Worth noting: pKd values are minus log10 of concentrations stated in mol/L.

humanized anti-GPC1 monoclonal antibody clone T31 (antibody, human IgG4 S228P, kappa, V domains shown, IgG) VH: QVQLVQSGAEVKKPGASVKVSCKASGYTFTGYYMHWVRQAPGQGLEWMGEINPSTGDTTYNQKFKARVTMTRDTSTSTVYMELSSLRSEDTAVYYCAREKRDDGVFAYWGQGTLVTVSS VL: AIQMTQSPATLSLSPGQRATLSCRASQSVSNYLAWYQQKPGQAPRLLIYDVSNRASGIPARFSGSGSGTDFTLTISSLEPEDFAIYYCQQRSNWPLTFGQGTKVDIKR | 6.57
humanized anti-GPC1 monoclonal antibody clone T59 (antibody, human IgG4 S228P, kappa, V domains shown, IgG) VH: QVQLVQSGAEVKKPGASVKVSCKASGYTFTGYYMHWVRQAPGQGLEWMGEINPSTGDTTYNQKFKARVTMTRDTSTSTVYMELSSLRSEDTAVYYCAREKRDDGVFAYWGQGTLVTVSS VL: EIVMTQSPSSLSASVGDRVTITCQASQHISNKLNWYQQKPGKAPKLLIYDASNLETGVPSRFSGSGYGTDFTFTVSSLQPEDIATYYCQQYDNLPITFGQGTRLEIKR | 6.52
humanized anti-GPC1 monoclonal antibody clone T36 (antibody, human IgG4 S228P, kappa, V domains shown, IgG) VH: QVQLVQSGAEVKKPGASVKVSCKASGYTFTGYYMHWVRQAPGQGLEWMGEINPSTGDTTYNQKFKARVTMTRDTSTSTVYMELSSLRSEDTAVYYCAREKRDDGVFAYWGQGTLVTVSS VL: NIQMTQSPSSLSASVGDRVTITCQASQDISNYLNWYQQRPGKAPQLLIYGASNLERGVPSRFSGSGFGTDFTLTISSVQPEDFATYYCQQAKSYPLTFGGGTKVEIKR | 8.01

Ask: Given humanized anti-GPC1 monoclonal antibody clone T10 (antibody, human IgG4 S228P, kappa, V domains shown, IgG) VH: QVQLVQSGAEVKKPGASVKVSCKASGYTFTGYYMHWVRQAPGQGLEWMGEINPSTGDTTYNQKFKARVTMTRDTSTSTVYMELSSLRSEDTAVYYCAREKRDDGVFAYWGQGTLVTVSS VL: EIVLTQSPSTLSASVGDRVTITCRASQSISSWLAWYQQIPGKAPRILISSASILQSGAPSRFSGSGFGTDFTLTISSVQPEDFATYYCQQAKSYPLTFGGGTKLEIKR , state its recorded pKd.
Result: 8.12

Ask: Given humanized anti-GPC1 monoclonal antibody clone T29 (antibody, human IgG4 S228P, kappa, V domains shown, IgG) VH: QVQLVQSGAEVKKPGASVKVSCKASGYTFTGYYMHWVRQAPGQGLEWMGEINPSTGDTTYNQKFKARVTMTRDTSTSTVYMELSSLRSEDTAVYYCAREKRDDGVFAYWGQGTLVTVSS VL: DIVMTQSPSSLSASVGDRVTITCRASQDISSYLNWYQQKPGEAPKLLVYGASNLQRGVPPGFRGSGSGTDFTLTINNLQPEDFATYYCQQSSTSPITFGQGTRLEIKR , state its recorded pKd.
Result: 6.49
